Where do the numbers come from? From the supplement of paper PMC9170038.

Tested on: MS2 coat protein
TEST DETAILS: apparent KD of MS2 coat protein; designed switch direction (-1 OFF switch, 1 ON switch): -1; higher = weaker reporter binding
CONDITION DETAILS: input ligand: FMN 200 uM

INPUT SEQUENCE	apparent KD of MS2 coat protein
UUAAGUUCAGGAUAUGAUGAAUUAAACAUGAGGAUCACCCAUGUAGAUCCUGAAUUAACAUCAGAAGGGAAUAUUU [JL-ex5-4.52 Brourd mod] (Eterna round: R97, puzzle: Exclusion 5)	24.4 nM
AAGAUGUCAGGAUAUUAGUAGUAAAUAAAUAAAAUUAUUACUGAGAAGGGACAUGAGGAUCACCCAUGUGCCUU [Salish 062 v10] (Eterna round: R97, puzzle: Exclusion 4)	16.4 nM
AUAUAGAUAGUCAGGAUAUGCUAGUGAUAACAGUAGCAGAAGGGACAUGAGGAUCACCCAUGUGGAUAGCGCAC [Brourd's EX4 #5] (Eterna round: R97, puzzle: Brourd's mod of Exclusion 4)	139 nM

* * *

Test system: MS2 coat protein
TEST DETAILS: apparent KD of MS2 coat protein; designed switch direction (-1 OFF switch, 1 ON switch): 1; higher = weaker reporter binding
CONDITION DETAILS: Eterna round: R95; input ligand: microRNA oligo, concentration not stated

INPUT SEQUENCE	apparent KD of MS2 coat protein, nM
AGUCCAGCCUGAGCUGGACAAAAGCAUGUACAUGAGGAUCACCCAUGUUCAUGUACAAGCUUUUUGCUCGUCAUAAA [Mat - hsa-mir-208a - Mod of JL - 51] (puzzle: Sensor for hsa-mir-208a)	14.9
GGAGCCGGCACCGAGGAUAUUCAUAUUAAAACAUGAGGAUCACCCAUGUAGAGCAGAAGCUCUUGGGAGAAGGCGGAUCGGCUCG [Xeonanis - 27] (puzzle: Same State 2)	306
AGUCCAGCCUGAGCUGGACGAAAGCAUGUACAUGAGGAUCACCCAUGUCAUGUACAAGCUUUUUGCUCGUCUUAAAA [Zipper 46 - 4] (puzzle: Sensor for hsa-mir-208a)	15
AACAAUCUAUCUGAGGAUAUCAUGAAAUAAACAUGAGGAUCACCCAUGUGCAGGUAAACUGCAUAUGAGAAGGCAGAUAGAUUGA [salish99_ss2_r3_040] (puzzle: Same State 2)	314
UUUAUACAUGAGGAUCACCCAUGUCAAUGUAGUCGAGGAUAUGGGCAGCUGUGAGGCGUACUAGAAGGCGAAGAGG [JL-ss1-3.09 ViennaUCT mod] (puzzle: Same State 1)	378

* * *

System: MS2 coat protein
TEST DETAILS: apparent KD of MS2 coat protein; higher = weaker reporter binding
CONDITION DETAILS: Eterna round: R107; input ligand: theophylline 20 uM
Class yes: apparent KD of MS2 coat protein at least 50 nM. Class no: apparent KD of MS2 coat protein below 50 nM.

INPUT SEQUENCE	CAT
ACAUGAGGAUCACCCAUGUAUUACCGGGAAGGAGCGCGUAAGGACGCAGGUAGGUCGCUCGGCGUCCGGCCGCAAGGCUGGACGA [#1 Same State - Arginine A Attempt #17 (HarryS)]	no
ACAUUGCGCACGGCCGCCACUGGCUAUAGAUUUAUAGCAUUAAUGAACAUGAGGAUCACCCAUGUCAGGACCGGGUGCGAACCAU [SSTryp B #9]	no
AGCAACUAGUCGGCCGCCACUCAUAUUACAUGAGGAUCACCCAUGUAUACAUGGUUGUUAUAUUUGAGGACCGGGACAGUUGCAU [JR_SSTryptoB_Sub018]	yes
AUACAUGAGGAUCACCCAUGUCAUUCAGAAGGAGCGUCAUUUUAGACAGGUAGGUCGCUGAUAUUAUCUUUAUACUUUAUGUUUA [JR_ExcArginiA_Sub023]	no
ACGCGUCAAGAGUAAAAUCCGUCAAGUGAUACCAGCCACAACGUAGGCCCUUGGCAGCACAUGAGGAUCACCCAUGUAAUAAGGA [Gedigerace]	yes
ACCUGUACGAAAAGUGCAGGACAUGGAAAUCGAGGACCGGUACGGCCGCCACUCGUAUAAAACAAGUGGAUCACCCUUGUCCAUG [TrypAS 2 #AlternativeMS2 #Zipper #StaticStem]	yes
CCUGAUAACUGAAGGAGCGAGAAACCCUACAUGAGGAUCACCCAUGUAUACACGGGAACUUCUCAGGUAGGUCGCAGUAUGUCGG [Rienat]	yes
CCUUAACAUGAGGAUCACCCAUGUCUGGAUACCAGAUACAGAUAAAUCCCUUGGCAGCCAAAAUAUGAAAGAAAUAAAAUAAGAA [theeternabot_sameState_MS2_Theo_A_29]	yes
AAAAUAUAGACGGCCGCCACUAUAAACAUGAGGAACAUGAGGAUCACCCAUGUAUGAGGAUCACCUAGGACCGGGUCAUAUAAAA [AstrosExyTryB#1]	yes
AUAACAUGAGGAUCACCCAUGUAAGCUGAAGGAGCGGACGAAAGUCCAGGUAGGUCGCAGCGCUCCUUCUGGUGAUCUGAAGGAG [(M1)-(M2)-(Arg1)-(Arg2)-(A)'-(M)'-(A)''_Design3]	yes
UCGCCCGGGUCGGCCGCCACUGAGGUGAUAUGACAUGAGGAUCACCCAUGUUGUCAUGUGGAACAUAGGACCGGGACCCGGGCGA [Exclusion - Tryptophan B Attempt #2 (HarryS)]	no
